Each entry below carries its reported residual activity.
MEASUREMENT_TARGET: Serine/threonine-protein kinase PLK3 (Homo sapiens)
CONDITION_CONTEXT: at 1 µM
Description: Millipore: Percentage of residual kinase activity of PLK3 at 1uM relative to control. Control inhibitor: Wortmannin at 100.0uM. Buffer: 8 mM MOPS pH 7.0, 0.2 mM EDTA
Form entry: value (%) — number only.

Here is how some compounds turned out for residual activity.
| SMILES_REPR | ENDPOINT_LABEL | RESULT_UNIT | READING |
| --- | --- | --- | --- |
| CN(C)c1ccc(/C=C2\C(=O)Nc3ccccc32)cc1 | residual activity | % | 94 |
| Cn1nc2c3c(cccc31)C(=O)c1ccccc1-2 | residual activity | % | 100 |
| Cc1nc2cc3nc(-c4cccs4)cnc3cc2n1C | residual activity | % | 101 |
| CC(C)n1cnc2c(NCc3ccccc3)nc(NCCCO)nc21 | residual activity | % | 98 |
| COc1cc2ncnc(N3CCN(C(=O)Nc4ccc(Oc5ccccc5)cc4)CC3)c2cc1OC | residual activity | % | 90 |

Lookup: What measured residual activity goes with Nc1ccc2ncnc(NCCc3ccc(Oc4ccccc4)cc3)c2c1 ?
Found: 102

Lookup: Try this compound too: CC#CC(=O)Nc1cc2c(Nc3ccc(F)c(Cl)c3)ncnc2cn1
Found: 96

Lookup: Try this compound too: Cn1cnc2cc3c(Nc4cccc(Br)c4)ncnc3cc21
Found: 95

Lookup: Try this compound too: Oc1ccc(-c2nc(-c3ccc(F)cc3)c(-c3ccncc3)[nH]2)cc1
Found: 109

Lookup: Try this compound too: O=C(Nc1cccc(Nc2cc(Nc3cccc(C(F)(F)F)c3)ncn2)c1)C1CC1
Found: 97

Lookup: Try this compound too: Cc1cc2ncc(-c3ccccc3)nc2cc1C
Found: 87

###

Each entry below carries its reported residual activity.
MEASUREMENT_TARGET: Tyrosine-protein kinase JAK2 (Homo sapiens)
CONDITION_CONTEXT: at 1 µM
Form entry: value (%) — number only.

Here is how some compounds turned out for residual activity.
| SMILES_REPR | RESULT_UNIT | residual activity |
| --- | --- | --- |
| CC(C)n1cnc2c(NCc3ccccc3)nc(NCCCO)nc21 | % | 101 |
| COc1cccc(-c2cc(=O)c3ccccc3o2)c1N | % | 111 |
| COc1cc2ncnc(Nc3ccc(O)c(Br)c3)c2cc1OC | % | 102 |
| CCOc1cc2ncnc(Nc3cccc(Br)c3)c2cc1OCC | % | 118 |
| NC(=O)c1ccc2[nH]c(-c3ccc(Oc4ccc(Cl)cc4)cc3)nc2c1 | % | 97 |
| COc1ccc(OC)c2c(=S)c3ccccc3[nH]c12 | % | 88 |
| CO[C@H]1C[C@@H]2CC[C@@H](C)[C@@](O)(O2)C(=O)C(=O)N2CCCC[C@H]2C(=O)O[C@H]([C@H](C)C[C@@H]2CC[C@@H](O)[C@H](OC)C2)CC(=O)[C@H](C)/C=C(\C)[C@@H](O)[C@@H](OC)C(=O)[C@H](C)C[C@H](C)/C=C/C=C/C=C/1C | % | 101 |
| CCC(=O)Nc1ccc2ncnc(Nc3cccc(Br)c3)c2c1 | % | 89 |

Next, consider the following compound.
Lookup: What measured residual activity goes with Oc1n[nH]c2nnc(-c3c(-c4ccccc4)nn4ccccc34)cc12 ?
Found: 99

###

MEASUREMENT_TARGET: Serine/threonine-protein kinase MRCK beta (Homo sapiens) (UniProt Q9Y5S2)
Sequence (Q9Y5S2 whole entry): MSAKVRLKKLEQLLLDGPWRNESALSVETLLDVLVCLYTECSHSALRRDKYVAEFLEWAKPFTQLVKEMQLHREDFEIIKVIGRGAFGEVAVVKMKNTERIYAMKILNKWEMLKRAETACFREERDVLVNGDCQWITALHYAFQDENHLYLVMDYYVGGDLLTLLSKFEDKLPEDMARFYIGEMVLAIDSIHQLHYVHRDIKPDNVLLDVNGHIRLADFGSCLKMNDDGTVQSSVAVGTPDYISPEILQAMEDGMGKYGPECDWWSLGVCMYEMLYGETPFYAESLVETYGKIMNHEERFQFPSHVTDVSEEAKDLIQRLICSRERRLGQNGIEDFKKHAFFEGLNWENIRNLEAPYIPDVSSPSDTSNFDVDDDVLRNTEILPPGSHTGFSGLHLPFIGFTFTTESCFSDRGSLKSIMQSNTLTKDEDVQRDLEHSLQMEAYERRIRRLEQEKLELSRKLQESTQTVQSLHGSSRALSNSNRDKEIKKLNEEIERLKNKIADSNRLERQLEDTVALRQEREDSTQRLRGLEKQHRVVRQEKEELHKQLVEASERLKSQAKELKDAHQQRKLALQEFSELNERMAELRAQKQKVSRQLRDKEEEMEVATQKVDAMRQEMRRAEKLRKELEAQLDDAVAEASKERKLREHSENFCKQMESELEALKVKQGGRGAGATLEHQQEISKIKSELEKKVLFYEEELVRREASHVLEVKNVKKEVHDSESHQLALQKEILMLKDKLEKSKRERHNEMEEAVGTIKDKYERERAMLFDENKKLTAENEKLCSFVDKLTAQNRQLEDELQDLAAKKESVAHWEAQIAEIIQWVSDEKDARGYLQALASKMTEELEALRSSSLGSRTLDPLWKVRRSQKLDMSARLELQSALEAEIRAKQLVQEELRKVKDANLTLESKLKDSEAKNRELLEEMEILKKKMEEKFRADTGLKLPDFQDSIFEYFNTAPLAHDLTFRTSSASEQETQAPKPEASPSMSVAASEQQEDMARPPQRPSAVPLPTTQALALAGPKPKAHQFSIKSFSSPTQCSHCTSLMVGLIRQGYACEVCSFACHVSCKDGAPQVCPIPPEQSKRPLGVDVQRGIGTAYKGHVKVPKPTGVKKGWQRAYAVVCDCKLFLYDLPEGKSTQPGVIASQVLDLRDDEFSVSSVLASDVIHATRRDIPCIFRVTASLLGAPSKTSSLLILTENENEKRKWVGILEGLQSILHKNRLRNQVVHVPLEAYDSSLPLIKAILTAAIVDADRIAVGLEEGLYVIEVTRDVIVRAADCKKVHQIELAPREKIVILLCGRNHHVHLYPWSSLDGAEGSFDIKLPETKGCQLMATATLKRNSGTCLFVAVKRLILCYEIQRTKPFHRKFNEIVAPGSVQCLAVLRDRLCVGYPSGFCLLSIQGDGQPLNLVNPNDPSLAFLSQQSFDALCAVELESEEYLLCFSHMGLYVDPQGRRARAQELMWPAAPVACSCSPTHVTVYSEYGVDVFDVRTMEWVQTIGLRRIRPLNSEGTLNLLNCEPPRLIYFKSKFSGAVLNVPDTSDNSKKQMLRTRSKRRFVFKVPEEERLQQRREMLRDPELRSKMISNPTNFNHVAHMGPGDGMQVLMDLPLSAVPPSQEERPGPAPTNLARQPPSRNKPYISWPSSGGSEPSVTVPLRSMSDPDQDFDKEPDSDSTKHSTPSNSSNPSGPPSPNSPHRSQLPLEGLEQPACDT
CONDITION_CONTEXT: at 1 µM
Each entry below carries its reported residual activity.
Form entry: value (%) — number only.

Here is how some compounds turned out for residual activity.
| SMILES_REPR | READING |
| --- | --- |
| O=[N+]([O-])c1ccc(-c2nc(-c3ccc(F)cc3)c(-c3ccncc3)[nH]2)cc1 | 91 |
| Cc1ccc(NC2=CC(=O)c3sc(C)nc3C2=O)cc1 | 87 |
| O=Nc1c(-c2c(O)[nH]c3ccccc23)[nH]c2ccccc12 | 106 |
| O=C1NC(=O)c2cc(Nc3ccc(F)cc3)c(Nc3ccc(F)cc3)cc21 | 79 |
| O=C1NC(=O)/C(=C/c2ccc3c(c2)OC(F)(F)O3)S1 | 106 |
| Cc1cncc2cccc(S(=O)(=O)N3CCCN(C(=O)CN)C[C@H]3C)c12 | 89 |

Lookup: What measured residual activity goes with C[C@@H](N)[C@H]1CC[C@H](C(=O)Nc2ccncc2)CC1 ?
Found: 95

Lookup: Try this compound too: Cc1nc2cc3nc(-c4cccs4)cnc3cc2n1C
Found: 105

Lookup: Try this compound too: COc1cc2ncc(-c3ccccc3)nc2cc1OC
Found: 98

Lookup: Try this compound too: CC#CC(=O)Nc1cc2c(Nc3ccc(F)c(Cl)c3)ncnc2cn1
Found: 95

Lookup: Try this compound too: Oc1c2ccccc2c2c3c(cccc13)N=N2
Found: 90

Lookup: Try this compound too: COc1cc2ncnc(Nc3ccc(Oc4ccccc4)cc3)c2cc1OC
Found: 99

Lookup: Try this compound too: Oc1ccc(-c2nc(-c3ccc(F)cc3)c(-c3ccncc3)[nH]2)cc1
Found: 105

Lookup: Try this compound too: CO[C@@H]1[C@H](N(C)C(=O)c2ccccc2)C[C@H]2O[C@]1(C)n1c3ccccc3c3c4c(c5c6ccccc6n2c5c31)C(=O)NC4
Found: 85

Lookup: Try this compound too: CC(C)n1cnc2c(NCc3ccccc3)nc(NCCCO)nc21
Found: 88

Lookup: Try this compound too: O=C(Nc1cccc(Nc2nccc(Nc3cccc(C(F)(F)F)c3)n2)c1)C1CC1
Found: 103

Lookup: Try this compound too: CN(C)c1ccc(/C=C2\C(=O)Nc3ccccc32)cc1
Found: 106

Lookup: Try this compound too: COc1ccc(S(=O)(=O)N(CCO)c2ccccc2CN(C)C/C=C/c2ccc(Cl)cc2)cc1
Found: 98

Lookup: Try this compound too: Nc1cccc(-c2cc3c(Oc4cccc(O)c4)ncnc3[nH]2)c1
Found: 95

Lookup: Try this compound too: Nc1ccc2ncnc(NCCc3ccc(Oc4ccccc4)cc3)c2c1
Found: 103

Lookup: Try this compound too: CC(=O)O/N=C1\C(=C2\C(=O)Nc3cc(Br)ccc32)Nc2ccccc21
Found: 96

Lookup: Try this compound too: N#CC(C#N)=C(N)/C(C#N)=C/c1ccc(O)cc1
Found: 96
